# credit: ChEMBL document CHEMBL1147945

target: Integrin alpha-V/beta-3 (Homo sapiens, UniProt P05106+P06756); assay: Inhibition of alphaVbeta3 integrin receptor expressed in human 293 cells
Sequence (P05106 27-788 limits assumed): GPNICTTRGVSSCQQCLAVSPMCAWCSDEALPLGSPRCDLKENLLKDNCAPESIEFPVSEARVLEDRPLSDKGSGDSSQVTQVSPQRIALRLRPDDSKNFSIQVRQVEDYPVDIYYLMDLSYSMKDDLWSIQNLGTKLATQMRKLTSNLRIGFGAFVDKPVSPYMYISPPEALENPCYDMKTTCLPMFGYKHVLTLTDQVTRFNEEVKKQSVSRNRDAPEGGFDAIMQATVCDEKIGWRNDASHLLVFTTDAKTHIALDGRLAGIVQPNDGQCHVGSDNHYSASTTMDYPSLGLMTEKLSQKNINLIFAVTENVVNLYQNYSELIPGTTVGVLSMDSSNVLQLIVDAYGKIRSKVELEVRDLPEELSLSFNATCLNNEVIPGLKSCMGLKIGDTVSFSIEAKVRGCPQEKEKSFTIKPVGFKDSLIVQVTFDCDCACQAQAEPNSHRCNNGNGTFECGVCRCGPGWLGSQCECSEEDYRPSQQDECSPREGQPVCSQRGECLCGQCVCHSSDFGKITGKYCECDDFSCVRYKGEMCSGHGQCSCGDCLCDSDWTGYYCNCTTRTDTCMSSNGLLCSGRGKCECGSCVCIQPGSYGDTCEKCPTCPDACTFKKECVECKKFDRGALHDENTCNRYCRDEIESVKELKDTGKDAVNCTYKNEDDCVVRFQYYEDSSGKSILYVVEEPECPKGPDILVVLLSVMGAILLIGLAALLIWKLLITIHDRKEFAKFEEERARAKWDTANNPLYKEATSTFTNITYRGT
Sequence (P06756 31-889 limits assumed): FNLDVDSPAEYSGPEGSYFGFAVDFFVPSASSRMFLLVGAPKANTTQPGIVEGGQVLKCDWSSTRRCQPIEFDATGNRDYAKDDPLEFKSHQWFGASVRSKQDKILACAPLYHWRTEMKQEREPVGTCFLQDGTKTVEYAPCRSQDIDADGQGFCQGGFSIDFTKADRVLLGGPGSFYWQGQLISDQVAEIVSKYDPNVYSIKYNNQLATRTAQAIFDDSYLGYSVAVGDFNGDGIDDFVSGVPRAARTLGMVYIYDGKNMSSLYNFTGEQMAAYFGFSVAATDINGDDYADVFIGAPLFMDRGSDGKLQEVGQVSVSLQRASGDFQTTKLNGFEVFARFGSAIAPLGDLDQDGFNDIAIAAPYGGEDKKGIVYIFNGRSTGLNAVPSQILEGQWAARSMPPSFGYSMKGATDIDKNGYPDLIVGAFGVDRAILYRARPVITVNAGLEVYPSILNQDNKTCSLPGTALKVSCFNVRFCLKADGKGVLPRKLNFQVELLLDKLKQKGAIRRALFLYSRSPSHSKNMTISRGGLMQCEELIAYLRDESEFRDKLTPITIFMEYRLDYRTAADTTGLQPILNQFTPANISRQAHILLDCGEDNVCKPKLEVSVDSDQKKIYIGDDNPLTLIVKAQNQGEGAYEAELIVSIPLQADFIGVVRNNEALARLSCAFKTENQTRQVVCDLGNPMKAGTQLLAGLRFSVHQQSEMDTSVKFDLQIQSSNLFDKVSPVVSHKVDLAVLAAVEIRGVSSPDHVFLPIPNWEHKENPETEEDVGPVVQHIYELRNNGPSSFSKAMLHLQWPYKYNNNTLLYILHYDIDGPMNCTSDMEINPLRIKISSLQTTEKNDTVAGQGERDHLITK
Sequence (P06756 891-1048 limits assumed): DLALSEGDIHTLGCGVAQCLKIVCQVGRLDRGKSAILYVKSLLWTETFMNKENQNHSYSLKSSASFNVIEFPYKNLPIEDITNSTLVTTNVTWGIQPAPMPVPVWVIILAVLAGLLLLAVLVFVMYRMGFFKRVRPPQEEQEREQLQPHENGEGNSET
Reported Property: IC50 (nM)
Unit nM implied. Number only.

1. O=C(O)C[C@H](NC(=O)CNC(=O)c1cc(O)cc(NC2=NCCCN2)c1)c1cc(Cl)cc(Cl)c1O: 0.9
2. O=C(O)C[C@H](NC(=O)CNC(=O)c1cc(O)cc(N=C2NCC(F)CN2)c1)c1cc(Cl)cc(Br)c1O (stereo partly drawn): 0.6
3. O=C(O)C[C@@H](NC(=O)CNC(=O)c1cccc(N=C2NCC(F)CN2)c1)c1cc(Cl)cc(Br)c1O (stereo partly drawn): 1
4. O=C(O)C[C@@H](NC(=O)CNC(=O)c1cccc(NC2=NCCCN2)c1)c1cc(Br)cc(Cl)c1O: 8
5. Nc1cc(NC2=NCC(O)CN2)cc(C(=O)NCC(=O)N[C@H](CC(=O)O)c2cc(Cl)cc(I)c2O)c1 (stereo partly drawn): 0.3

Query: Query the reported IC50 for Integrin alpha-V/beta-3 (Homo sapiens, UniProt P05106+P06756); item: O=C(O)C[C@H](NC(=O)CNC(=O)c1cccc(NC2=NCC(O)CN2)c1)c1cc(Cl)cc(Br)c1O (stereo partly drawn)
Response: 0.6

Query: Query the reported IC50 for Integrin alpha-V/beta-3 (Homo sapiens, UniProt P05106+P06756); item: Nc1cc(NC2=NCC(O)CN2)cc(C(=O)NCC(=O)N[C@H](CC(=O)O)c2cc(Br)cc(Cl)c2O)c1 (stereo partly drawn)
Response: 33

Query: Query the reported IC50 for Integrin alpha-V/beta-3 (Homo sapiens, UniProt P05106+P06756); item: O=C(O)C[C@H](NC(=O)CNC(=O)c1cccc(NC2=NCC(O)CN2)c1)c1cc(Cl)cc(Cl)c1O (stereo partly drawn)
Response: 0.3
